Biological target: Phosphatidylinositol 4,5-bisphosphate 3-kinase catalytic subunit gamma isoform (Homo sapiens, UniProt P48736)
Sequence (P48736 whole entry, canonical isoform): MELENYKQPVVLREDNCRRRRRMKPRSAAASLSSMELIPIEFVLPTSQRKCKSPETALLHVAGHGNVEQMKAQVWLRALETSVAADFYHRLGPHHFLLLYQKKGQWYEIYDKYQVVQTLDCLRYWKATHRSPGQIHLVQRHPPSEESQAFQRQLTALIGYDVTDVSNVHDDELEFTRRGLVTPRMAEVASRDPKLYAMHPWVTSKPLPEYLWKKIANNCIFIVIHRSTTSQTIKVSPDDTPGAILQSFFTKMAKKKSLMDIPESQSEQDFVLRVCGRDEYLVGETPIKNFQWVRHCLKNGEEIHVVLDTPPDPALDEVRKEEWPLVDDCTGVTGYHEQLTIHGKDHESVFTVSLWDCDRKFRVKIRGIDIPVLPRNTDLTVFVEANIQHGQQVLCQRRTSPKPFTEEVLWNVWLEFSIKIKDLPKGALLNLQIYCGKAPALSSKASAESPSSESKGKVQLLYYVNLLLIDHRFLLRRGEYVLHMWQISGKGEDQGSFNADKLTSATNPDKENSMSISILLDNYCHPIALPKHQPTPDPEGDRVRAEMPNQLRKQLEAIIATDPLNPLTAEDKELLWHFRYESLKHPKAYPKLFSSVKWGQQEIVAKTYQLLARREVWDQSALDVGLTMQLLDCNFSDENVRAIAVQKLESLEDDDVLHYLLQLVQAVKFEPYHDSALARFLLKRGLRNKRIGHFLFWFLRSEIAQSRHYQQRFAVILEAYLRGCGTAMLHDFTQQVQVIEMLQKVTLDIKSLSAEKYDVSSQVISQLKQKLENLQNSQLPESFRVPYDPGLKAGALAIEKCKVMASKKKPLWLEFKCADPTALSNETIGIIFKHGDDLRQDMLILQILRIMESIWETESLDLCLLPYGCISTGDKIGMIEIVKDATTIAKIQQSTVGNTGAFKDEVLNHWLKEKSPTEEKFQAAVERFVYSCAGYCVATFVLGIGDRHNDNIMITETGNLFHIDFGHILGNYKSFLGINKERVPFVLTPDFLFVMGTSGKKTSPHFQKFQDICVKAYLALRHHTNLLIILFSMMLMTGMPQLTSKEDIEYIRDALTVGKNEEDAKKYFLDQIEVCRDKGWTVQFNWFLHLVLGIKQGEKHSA
Assay: Inhibition of human PI3Kgamma by TR-FRET based Adapta assay
pIC50: −log10 of the molar value.
property_name: pIC50

O=C(NOCCOCCOCCOCCNc1nc(N2CCOCC2)nc(-n2c(C(F)F)nc3ccccc32)n1)c1ccc(F)c(F)c1Nc1ccc(I)cc1F :: 5.56

---

Recorded concentration at 4 h for the following compounds
Assay: Drug concentration in JAK2V6175 transgenic myelofibrosis C57BL/6 mouse bone marrow at 325 mg/kg, po measured after 4 hrs by LC-MS/MS analysis
Type: ADME, organism-based
Conditions: read-out: Ct
property_name: concentration at 4 h (ng/g)

O=C(NOCCOCCOCCOCCNc1nc(N2CCOCC2)nc(-n2c(C(F)F)nc3ccccc32)n1)c1ccc(F)c(F)c1Nc1ccc(I)cc1F :: 2000
O=C(NOCCOCCOCCOCCN(CCO)c1nc(N2CCOCC2)nc(-n2c(C(F)F)nc3ccccc32)n1)c1ccc(F)c(F)c1Nc1ccc(I)cc1F :: 2000

---

Molecular target: Phosphatidylinositol 4,5-bisphosphate 3-kinase catalytic subunit delta isoform (Homo sapiens)
Sequence (O00329 whole entry, canonical isoform): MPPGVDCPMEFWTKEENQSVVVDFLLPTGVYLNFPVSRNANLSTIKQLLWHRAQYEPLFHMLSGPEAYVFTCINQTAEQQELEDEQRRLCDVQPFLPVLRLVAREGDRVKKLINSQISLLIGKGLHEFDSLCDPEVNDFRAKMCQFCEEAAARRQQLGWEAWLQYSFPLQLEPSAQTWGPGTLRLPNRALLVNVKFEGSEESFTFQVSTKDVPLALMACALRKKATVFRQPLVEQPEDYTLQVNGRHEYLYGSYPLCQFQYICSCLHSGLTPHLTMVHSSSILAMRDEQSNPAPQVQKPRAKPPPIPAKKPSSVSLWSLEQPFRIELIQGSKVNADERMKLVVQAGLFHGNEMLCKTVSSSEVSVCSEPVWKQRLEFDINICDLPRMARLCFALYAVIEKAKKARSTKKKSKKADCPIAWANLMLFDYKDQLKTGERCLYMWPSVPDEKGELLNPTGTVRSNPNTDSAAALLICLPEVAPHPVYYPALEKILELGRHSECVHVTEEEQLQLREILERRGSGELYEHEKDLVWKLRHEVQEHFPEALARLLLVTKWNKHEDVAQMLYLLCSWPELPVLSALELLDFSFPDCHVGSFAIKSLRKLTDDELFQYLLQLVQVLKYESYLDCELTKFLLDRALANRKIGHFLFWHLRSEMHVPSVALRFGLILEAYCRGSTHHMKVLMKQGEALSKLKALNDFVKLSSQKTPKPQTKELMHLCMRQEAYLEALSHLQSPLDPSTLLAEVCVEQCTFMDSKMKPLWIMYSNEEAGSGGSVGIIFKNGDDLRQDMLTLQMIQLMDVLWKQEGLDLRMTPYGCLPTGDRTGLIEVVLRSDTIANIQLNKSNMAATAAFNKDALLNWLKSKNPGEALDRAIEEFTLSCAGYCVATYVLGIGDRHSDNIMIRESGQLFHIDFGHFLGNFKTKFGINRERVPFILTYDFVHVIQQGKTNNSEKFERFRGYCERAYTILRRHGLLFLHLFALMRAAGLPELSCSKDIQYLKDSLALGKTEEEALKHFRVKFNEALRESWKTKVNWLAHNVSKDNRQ
Experiment: Inhibition of human PI3Kdelta by TR-FRET based Adapta assay
pIC50: −log10 of the molar value.
property_name: pIC50

O=C(NOCCOCCOCCOCCNc1nc(N2CCOCC2)nc(-n2c(C(F)F)nc3ccccc32)n1)c1ccc(F)c(F)c1Nc1ccc(I)cc1F :: 6.63

---

Target: Phosphatidylinositol 4,5-bisphosphate 3-kinase catalytic subunit alpha isoform (Homo sapiens, UniProt P42336)
Sequence (P42336 whole entry, canonical isoform): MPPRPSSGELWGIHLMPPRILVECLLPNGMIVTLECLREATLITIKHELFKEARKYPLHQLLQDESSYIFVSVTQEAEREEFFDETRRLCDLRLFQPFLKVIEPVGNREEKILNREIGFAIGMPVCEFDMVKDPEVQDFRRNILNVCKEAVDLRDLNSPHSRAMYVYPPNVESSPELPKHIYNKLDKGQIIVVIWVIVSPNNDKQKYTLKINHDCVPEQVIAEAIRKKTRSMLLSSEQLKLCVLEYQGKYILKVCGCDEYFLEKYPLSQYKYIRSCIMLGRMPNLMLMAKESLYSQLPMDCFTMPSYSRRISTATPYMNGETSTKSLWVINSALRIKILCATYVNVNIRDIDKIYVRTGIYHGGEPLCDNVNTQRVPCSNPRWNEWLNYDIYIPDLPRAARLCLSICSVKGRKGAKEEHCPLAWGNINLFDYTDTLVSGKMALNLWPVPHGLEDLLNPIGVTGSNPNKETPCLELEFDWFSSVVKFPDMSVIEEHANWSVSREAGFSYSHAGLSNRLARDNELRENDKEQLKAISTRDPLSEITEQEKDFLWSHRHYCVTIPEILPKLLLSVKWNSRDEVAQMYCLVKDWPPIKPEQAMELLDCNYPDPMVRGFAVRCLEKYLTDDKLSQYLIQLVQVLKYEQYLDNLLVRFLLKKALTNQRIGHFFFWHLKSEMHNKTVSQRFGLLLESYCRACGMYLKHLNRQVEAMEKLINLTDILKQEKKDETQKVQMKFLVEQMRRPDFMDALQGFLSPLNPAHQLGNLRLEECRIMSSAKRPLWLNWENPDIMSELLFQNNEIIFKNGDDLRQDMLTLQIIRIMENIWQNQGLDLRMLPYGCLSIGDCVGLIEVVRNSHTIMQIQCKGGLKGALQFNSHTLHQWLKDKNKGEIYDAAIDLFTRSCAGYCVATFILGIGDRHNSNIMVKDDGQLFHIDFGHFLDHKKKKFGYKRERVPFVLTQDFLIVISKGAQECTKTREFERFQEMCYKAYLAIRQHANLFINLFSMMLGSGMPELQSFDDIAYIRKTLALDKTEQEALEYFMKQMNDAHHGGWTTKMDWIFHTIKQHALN
Assay: Inhibition of human PI3Kalpha by TR-FRET based Adapta assay
pIC50: −log10 of the molar value.
property_name: pIC50

O=C(NOCCOCCOCCOCCNc1nc(N2CCOCC2)nc(-n2c(C(F)F)nc3ccccc32)n1)c1ccc(F)c(F)c1Nc1ccc(I)cc1F :: 6.89
